Recorded responders at 90 µmol/kg values for a group of compounds are listed next.
system: thrombus formation in the carotid artery (70% FeCl3 patch); assay: Anti-thrombotic activity, FeCl3-induced carotid artery thrombosis; assay type: in vivo, Male Wistar rats; conditions: Rattus norvegicus, po, 1 h, 90 μmol/kg p.o., 1 h after dosage, % animals protected, read-out: Antithrombotic activity (% protection)
Note: unit % is implicit; provide only the numeric part.

Illustrative cases are given below, each with its answer.
compound	assay.endpoint	numeric.result
O=[N+]([O-])O[C@@H]1CO[C@H]2[C@@H]1OC[C@@H]2[S+]([O-])Cc1ccccc1 (some centres unmarked) [Comp 4, reference compound]	responders at 90 µmol/kg	20
CC(=O)S[C@@H]1CO[C@H]2[C@@H]1OC[C@H]2O[N+](=O)[O-]	responders at 90 µmol/kg	75
CCCC[S+]([O-])[C@H]1CO[C@H]2[C@@H]1OC[C@H]2O[N+](=O)[O-] (some centres unmarked) [Comp 11, reference compound]	responders at 90 µmol/kg	32
CC[S+]([O-])[C@H]1CO[C@H]2[C@@H]1OC[C@H]2O[N+](=O)[O-] (some centres unmarked)	responders at 90 µmol/kg	67
C=CCS(=O)(=O)[C@H]1CO[C@H]2[C@@H]1OC[C@H]2O[N+](=O)[O-]	responders at 90 µmol/kg	83

Fill in the recorded responders at 90 µmol/kg for this compound, with thrombus formation in the carotid artery (70% FeCl3 patch) as test system: "CCCS[C@H]1CO[C@H]2[C@@H]1OC[C@H]2O[N+](=O)[O-]"
67

Fill in the recorded responders at 90 µmol/kg for this compound, with thrombus formation in the carotid artery (70% FeCl3 patch) as test system: CCOC(=O)CS[C@H]1CO[C@H]2[C@@H]1OC[C@H]2O[N+](=O)[O-] [Comp 3, reference compound]
32

Fill in the recorded responders at 90 µmol/kg for this compound, with thrombus formation in the carotid artery (70% FeCl3 patch) as test system: CCCCS[C@H]1CO[C@H]2[C@@H]1OC[C@H]2O[N+](=O)[O-] [Comp 10, reference compound]
40

====

tested on: thrombus formation in the carotid artery (70% FeCl3 patch); assay: Anti-thrombotic activity, FeCl3-induced carotid artery thrombosis; format: in vivo, Male Wistar rats; settings: Rattus norvegicus, po, 4 h, 90 μmol/kg p.o., 4 h after dosage, % animals protected, read-out: Antithrombotic activity (% protection)
assay.endpoint: responders at 90 µmol/kg (%)
Note: unit % is implicit; provide only the numeric part.

Illustrative cases are given below, each with its answer.
molecule	responders at 90 µmol/kg (%)
O=[N+]([O-])O[C@@H]1CO[C@H]2[C@@H]1OC[C@@H]2S [Comp 1, reference compound]	16
CC[S+]([O-])[C@H]1CO[C@H]2[C@@H]1OC[C@H]2O[N+](=O)[O-] (some centres unmarked)	50
CCCS(=O)(=O)[C@H]1CO[C@H]2[C@@H]1OC[C@H]2O[N+](=O)[O-]	0
CCS[C@@H]1CO[C@H]2[C@@H]1OC[C@H]2O[N+](=O)[O-]	0
CCC[S+]([O-])[C@H]1CO[C@H]2[C@@H]1OC[C@H]2O[N+](=O)[O-] (some centres unmarked)	50
CCOC(=O)C[S+]([O-])[C@H]1CO[C@H]2[C@@H]1OC[C@H]2O[N+](=O)[O-] (some centres unmarked) [Comp 5, reference compound]	0

Query (molecule): C[S@+]([O-])[C@H]1CO[C@H]2[C@@H]1OC[C@H]2O[N+](=O)[O-] [Comp 7, reference compound] ; field requested: responders at 90 µmol/kg
0

Query (molecule): "CCCS[C@@H]1CO[C@H]2[C@@H]1OC[C@H]2O[N+](=O)[O-]" ; field requested: responders at 90 µmol/kg
16

====

tested on: thrombus formation in the carotid artery (70% FeCl3 patch); test: Anti-thrombotic activity, FeCl3-induced carotid artery thrombosis; type: in vivo, Male Wistar rats; settings: Rattus norvegicus, po, 4 h, 90 μmol/kg p.o., 4 h after dosage, % animals protected, read-out: Antithrombotic activity (% protection)
assay.endpoint: responders at 90 µmol/kg (%)
Note: unit % is implicit; provide only the numeric part.

Illustrative cases are given below, each with its answer.
compound	numeric.result
CC(=O)S[C@@H]1CO[C@H]2[C@@H]1OC[C@H]2O[N+](=O)[O-]	40
C[S@@+]([O-])[C@H]1CO[C@H]2[C@@H]1OC[C@H]2O[N+](=O)[O-] [Comp 6, reference compound]	0

Query (compound): "C=CCS(=O)(=O)[C@H]1CO[C@H]2[C@@H]1OC[C@H]2O[N+](=O)[O-]" ; field requested: responders at 90 µmol/kg
0

Query (compound): C=CC[S+]([O-])[C@H]1CO[C@H]2[C@@H]1OC[C@H]2O[N+](=O)[O-] (stereo partly drawn) ; field requested: responders at 90 µmol/kg
17

Query (compound): "CCS(=O)(=O)[C@H]1CO[C@H]2[C@@H]1OC[C@H]2O[N+](=O)[O-]" ; field requested: responders at 90 µmol/kg
0

Query (compound): "CCCS(=O)(=O)[C@@H]1CO[C@H]2[C@@H]1OC[C@H]2O[N+](=O)[O-]" ; field requested: responders at 90 µmol/kg
20

Query (compound): "CCS(=O)(=O)[C@@H]1CO[C@H]2[C@@H]1OC[C@H]2O[N+](=O)[O-]" ; field requested: responders at 90 µmol/kg
0

Query (compound): O=[N+]([O-])O[C@@H]1CO[C@H]2[C@@H]1OC[C@@H]2[S+]([O-])Cc1ccccc1 (stereo partly drawn) [Comp 4, reference compound] ; field requested: responders at 90 µmol/kg
0

Query (compound): CC[S+]([O-])[C@@H]1CO[C@H]2[C@@H]1OC[C@H]2O[N+](=O)[O-] (single isomer, unassigned) ; field requested: responders at 90 µmol/kg
16

====

Recorded responders at 90 µmol/kg values for a group of molecules are listed next.
tested on: thrombus formation in the carotid artery (70% FeCl3 patch); assay: Anti-thrombotic activity, FeCl3-induced carotid artery thrombosis; format: in vivo, Male Wistar rats; conditions: Rattus norvegicus, po, 2 h, 90 μmol/kg p.o., 2 h after dosage, % animals protected, read-out: Antithrombotic activity (% protection)
Note: unit % is implicit; provide only the numeric part.

molecule	responders at 90 µmol/kg / %
O=[N+]([O-])O[C@@H]1CO[C@H]2[C@@H]1OC[C@@H]2[S+]([O-])Cc1ccccc1 (stereo partly drawn) [Comp 4, reference compound]	0
CCOC(=O)C[S+]([O-])[C@H]1CO[C@H]2[C@@H]1OC[C@H]2O[N+](=O)[O-] (stereo partly drawn) [Comp 5, reference compound]	0
CC(=O)S[C@@H]1CO[C@H]2[C@@H]1OC[C@H]2O[N+](=O)[O-]	83
CCS(=O)(=O)[C@H]1CO[C@H]2[C@@H]1OC[C@H]2O[N+](=O)[O-]	32
CCCS(=O)(=O)[C@H]1CO[C@H]2[C@@H]1OC[C@H]2O[N+](=O)[O-]	50

Query (molecule): O=[N+]([O-])O[C@@H]1CO[C@H]2[C@@H]1OC[C@@H]2S [Comp 1, reference compound] ; field requested: responders at 90 µmol/kg
32

Query (molecule): CC[S+]([O-])[C@H]1CO[C@H]2[C@@H]1OC[C@H]2O[N+](=O)[O-] (stereo partly drawn) ; field requested: responders at 90 µmol/kg
83

Query (molecule): C[S@+]([O-])[C@H]1CO[C@H]2[C@@H]1OC[C@H]2O[N+](=O)[O-] [Comp 7, reference compound] ; field requested: responders at 90 µmol/kg
0

Query (molecule): C=CC[S+]([O-])[C@H]1CO[C@H]2[C@@H]1OC[C@H]2O[N+](=O)[O-] (stereo partly drawn) ; field requested: responders at 90 µmol/kg
34

Query (molecule): C[S@@+]([O-])[C@H]1CO[C@H]2[C@@H]1OC[C@H]2O[N+](=O)[O-] [Comp 6, reference compound] ; field requested: responders at 90 µmol/kg
0

Query (molecule): CCC[S+]([O-])[C@H]1CO[C@H]2[C@@H]1OC[C@H]2O[N+](=O)[O-] (stereo partly drawn) ; field requested: responders at 90 µmol/kg
67

Query (molecule): "C=CCS(=O)(=O)[C@H]1CO[C@H]2[C@@H]1OC[C@H]2O[N+](=O)[O-]" ; field requested: responders at 90 µmol/kg
50

====

test system: thrombus formation in the carotid artery (70% FeCl3 patch); assay: Anti-thrombotic activity, FeCl3-induced carotid artery thrombosis; assay type: in vivo, Male Wistar rats; conditions: Rattus norvegicus, po, 1 h, 90 μmol/kg p.o., 1 h after dosage, % animals protected, read-out: Antithrombotic activity (% protection)
assay.endpoint: responders at 90 µmol/kg (%)
Note: unit % is implicit; provide only the numeric part.

compound	responders at 90 µmol/kg, %
CCCCS(=O)(=O)[C@H]1CO[C@H]2[C@@H]1OC[C@H]2O[N+](=O)[O-] [Comp 12, reference compound]	40

Query (compound): C[S@@+]([O-])[C@H]1CO[C@H]2[C@@H]1OC[C@H]2O[N+](=O)[O-] [Comp 6, reference compound] ; field requested: responders at 90 µmol/kg
16

Query (compound): C=CC[S+]([O-])[C@H]1CO[C@H]2[C@@H]1OC[C@H]2O[N+](=O)[O-] (stereo partly drawn) [Ej. 6] ; field requested: responders at 90 µmol/kg
67

Query (compound): CCCS(=O)(=O)[C@H]1CO[C@H]2[C@@H]1OC[C@H]2O[N+](=O)[O-] [Ej. 8] ; field requested: responders at 90 µmol/kg
100

Query (compound): C=CCS[C@H]1CO[C@H]2[C@@H]1OC[C@H]2O[N+](=O)[O-] [Ej. 3] ; field requested: responders at 90 µmol/kg
67

Query (compound): CCC[S+]([O-])[C@H]1CO[C@H]2[C@@H]1OC[C@H]2O[N+](=O)[O-] (stereo partly drawn) [Ej. 5] ; field requested: responders at 90 µmol/kg
76

Query (compound): CCOC(=O)C[S+]([O-])[C@H]1CO[C@H]2[C@@H]1OC[C@H]2O[N+](=O)[O-] (stereo partly drawn) [Comp 5, reference compound] ; field requested: responders at 90 µmol/kg
16

Query (compound): O=[N+]([O-])O[C@@H]1CO[C@H]2[C@@H]1OC[C@@H]2S(=O)(=O)Cc1ccccc1 [Comp 8, reference compound] ; field requested: responders at 90 µmol/kg
33

Query (compound): CCCS(=O)(=O)[C@@H]1CO[C@H]2[C@@H]1OC[C@H]2O[N+](=O)[O-] [Ej. 16] ; field requested: responders at 90 µmol/kg
40
